Assay: Hepatic microsomal stability, MLM
Type: in vitro ADME
Settings: In vitro mouse liver microsomal stability, no cofactor
Kindly state perc_remaining_no_cofactor for each of the entries shown.
One number for each entry, in %.

Cc1nn(C)cc1-c1cc2c(N[C@H](c3ccc4c(c3)S(=O)(=O)CCC4)C(C)C)ncnc2[nH]1 (single isomer, unassigned) ... 103.0
CC(C)[C@H](Nc1ncnc2[nH]c(-c3cnn(C)c3C#N)cc12)c1ccc2c(c1)S(=O)(=O)CCC2 (single isomer, unassigned) ... 90.0
Cn1ncc(-c2cc3c(N[C@@H](c4ccc5c(n4)OCCO5)C(C)(C)C)ncnc3[nH]2)c1C#N ... 94.0
CC(C)(C)[C@H](Nc1ncnc2[nH]c(-c3cnn(CC(N)=O)c3)cc12)c1ccc2c(n1)OCCO2 (racemic) [ASAP-0008648] ... 90.0
CNC(=O)c1cc2c(N[C@@H](c3ccc4c(c3)S(=O)(=O)CCC4)C(C)C)ncnc2[nH]1 (single isomer, unassigned) ... 97.0
CC(C)[C@H](Nc1ncnc2[nH]c(-c3cnn(C)c3C#N)cc12)c1ccc2c(c1)NC(=O)CO2 (racemic) [ASAP-0008576] ... 97.0

// for each compound in input: emit perc_remaining_no_cofactor
1. CC(C)[C@H](Nc1ncnc2[nH]c(-c3cnn(C)c3C#N)cc12)c1ccc2c(n1)NC(=O)CO2 (single isomer, unassigned)
2. CC(C)[C@@H](Nc1ncnc2[nH]c(C(=O)N[C@H]3CCN(C)C3)cc12)c1ccc2c(c1)S(=O)(=O)CCC2 (single isomer, unassigned)
3. CC(C)[C@H](Nc1ncnc2[nH]c(-c3cnn(CC(N)=O)c3)cc12)c1ccc2c(c1)NC(=O)CO2 (racemic)
4. CCNC(=O)c1cc2c(NC(c3ccc4c(c3)S(=O)(=O)CCC4)C(C)C)ncnc2[nH]1 (centres unmarked)
5. CNC(=O)c1cc2c(N[C@H](c3ccc4c(c3)S(=O)(=O)CCC4)C(C)C)ncnc2[nH]1 (single isomer, unassigned)

Response:
1. 85.0
2. 92.0
3. 102.0
4. 114.0
5. 106.0

// for each compound in input: emit perc_remaining_no_cofactor
1. CC(C)(C)[C@H](Nc1ncnc2[nH]c(-c3cnn(CC(N)=O)c3)cc12)c1ccc2c(c1)OCCO2 (racemic) [ASAP-0008581]
2. CC(C)[C@H](Nc1ncnc2[nH]c(-c3cnn(CC(=O)N(C)C)c3)cc12)c1ccc2c(c1)S(=O)(=O)CCC2
3. COc1ccc([C@H](Cc2nnn[nH]2)NC(=O)c2ncnc3[nH]ccc23)cc1
4. CC(C)[C@H](Nc1ncnc2[nH]cc(C(=O)NC3CC3)c12)c1ccc2c(c1)S(=O)(=O)CCC2 (single isomer, unassigned) [ASAP-0011247]
5. CC(C)[C@H](Nc1ncnc2[nH]c(-c3cnn(CC(N)=O)c3)cc12)c1ccc2c(c1)S(=O)(=O)CCC2 (single isomer, unassigned)
6. CNC(=O)c1c[nH]c2ncnc(N[C@H](c3ccc4c(c3)NC(=O)CO4)C(C)C)c12 (racemic)

Response:
[107.0, 98.0, 100.411, 102.0, 98.0, 95.0]
